- Target desc: Cyclin-dependent kinase 2/cyclin E (Homo sapiens, UniProt P24941)
- Assay text: Inhibitory activity against Cyclin-dependent kinase 2-cyclin E
- Format: protein-complex assay
pIC50: −log10 of the molar value.
Readout name: pIC50

Recorded results for 3 compounds are shown here.
Smiles text	pIC50
CCCCOc1c(C(=O)c2c(F)cc(Cl)cc2F)cnc2[nH]ncc12	7.57
CCCCOc1c(C(=O)c2c(F)cc(Br)cc2F)cnc2[nH]ncc12	7.70
CCCCOc1c(C(=O)C2CC2)cnc2[nH]ncc12	5.57

I. CCCCOc1c(C(=O)c2ccccc2C)cnc2[nH]ncc12
II. CCCCOc1c(C(=O)c2cccnc2)cnc2[nH]ncc12
Request: Which shows the larger pIC50 value: I or II ? Write down the label attached to your selection.
Result: I
(I: 6.14, II: 5.62)

----------
- Target desc: Cyclin-dependent kinase 1/cyclin B (Homo sapiens)
- Assay text: Inhibition of Cyclin-dependent kinase 1-cyclin B
pIC50: −log10 of the molar value.
Readout name: pIC50

P. CCCCOc1c(C(=O)c2c(F)cc(C)cc2F)c[nH]c2nncc1-2
Q. CCCCOc1c(C(=O)c2nccs2)cnc2[nH]ncc12
Request: Which shows the larger pIC50 value: P or Q ? Write down the label attached to your selection.
Result: P
(P: 8.22, Q: 6.35)

a. CCCCOc1c(C(=O)c2ccccc2F)cnc2[nH]ncc12
b. CCCCOc1c(C(=O)c2c(F)cc(Cl)cc2F)cnc2[nH]ncc12
Request: Lowest pIC50? choose a or b Write down the label attached to your selection.
Result: a
(a: 6.44, b: 7.89)

----------
- Target desc: Cyclin-dependent kinase 2/cyclin E (Homo sapiens)
- Assay text: Inhibitory activity against Cyclin-dependent kinase 2-cyclin E
pIC50: −log10 of the molar value.
Readout name: pIC50

Recorded results for 7 molecules are shown here.
Molecule	Value measured
CCCCOc1c(S(=O)(=O)c2ccccc2)cnc2[nH]ncc12	6.28
CCCCOc1c(C(=O)c2cccc(C)c2)cnc2[nH]ncc12	6.18
CCCCOc1c(C(=O)c2c(F)cccc2F)cnc2[nH]ncc12	7.19
CCCCOc1c(C(=O)c2c(F)cc(C)cc2F)c[nH]c2nncc1-2	8.05
CCCCOc1c(C(=O)c2ccccc2F)cnc2[nH]ncc12	7.44
CCCCOc1c(C(=O)c2ccc(C)cc2)cnc2[nH]ncc12	6.68
CCCCOc1c(C(=O)NCC)cnc2[nH]ncc12	5.09

P. CCCCOc1c([S+]([O-])c2ccccc2)cnc2[nH]ncc12 (configuration not stated)
Q. CCCCOc1c(C(=O)c2nccs2)cnc2[nH]ncc12
Request: Lowest pIC50? choose P or Q Write down the label attached to your selection.
Result: P

----------
- Target desc: Cyclin-dependent kinase 2/cyclin E (Homo sapiens)
- Assay text: Inhibitory activity against Cyclin-dependent kinase 2-cyclin E
Readout name: IC50 (nM)

Recorded results for 2 compounds are shown here.
Smiles text	IC50 (nM)
CCCCOc1c(C(=O)c2c(F)cc(OC)cc2F)cnc2[nH]ncc12	22
CCCCOc1c(C(=O)c2ccco2)cnc2[nH]ncc12	180

1. CCCCOc1c(C(=O)c2cccs2)cnc2[nH]ncc12
2. CCCCOc1c(C(=O)Nc2ccccc2)cnc2[nH]ncc12
Request: Lowest IC50? choose 1 or 2 Write down the label attached to your selection.
Result: 1
(1: 200 nM, 2: 19000 nM)

----------
- Target desc: Cyclin-dependent kinase 1/cyclin B (Homo sapiens, UniProt P06493)
- Assay text: Inhibition of Cyclin-dependent kinase 1-cyclin B
pIC50: −log10 of the molar value.
Readout name: pIC50

Recorded results for 4 compounds are shown here.
Smiles text	Target desc	pIC50
CCCCOc1c(C(=O)c2c(F)cccc2F)cnc2[nH]ncc12	Cyclin-dependent kinase 1/cyclin B (Homo sapiens, UniProt P06493)	7.49
CCCCOc1c(C(=O)c2c(F)cc(OC)cc2F)cnc2[nH]ncc12	Cyclin-dependent kinase 1/cyclin B (Homo sapiens, UniProt P06493)	8.15
CCCCOc1c(C(=O)c2ccccc2C)cnc2[nH]ncc12	Cyclin-dependent kinase 1/cyclin B (Homo sapiens, UniProt P06493)	6.39
CCCCOc1c(C(=O)c2ccco2)cnc2[nH]ncc12	Cyclin-dependent kinase 1/cyclin B (Homo sapiens, UniProt P06493)	6.55

P. CCCCOc1c(C(=O)c2cccs2)cnc2[nH]ncc12
Q. CCCCOc1c(C(=O)c2c(F)cc(Br)cc2F)cnc2[nH]ncc12
Request: Which shows the larger pIC50 value: P or Q ? Write down the label attached to your selection.
Result: Q
(Q: 7.77, P: 6.64)

Origin of values: ChEMBL document CHEMBL1136116
